assay-explanation: Kinetic solubility of the compound in phosphate buffer at pH 6.5 by nephelometric method
Type: physicochemical
reported-conditions: read-out: Kinetic_solubility
readout: solubility kinetic

INSERT INTO results (chemical_smiles, readout, result) VALUES
  ('O=C(Nc1cnccn1)Nc1cnccn1', 'solubility kinetic', '6.3 to 12.5 µg/mL'),
  ('O=C(Nc1cccnc1)Nc1ccc(F)c(C(F)(F)F)c1', 'solubility kinetic', '12.5 to 25 µg/mL'),
  ('O=C(Nc1ccnc(C(F)(F)F)c1)Nc1ccnc(C(F)(F)F)c1', 'solubility kinetic', '12.5 to 25 µg/mL'),
  ('O=C(Nc1ccncc1)Nc1ccncc1', 'solubility kinetic', '12.5 to 25 µg/mL'),
  ('O=C(Nc1ccc(F)c(C(F)(F)F)c1)Nc1cnccn1', 'solubility kinetic', '< 1.6 µg/mL'),
  ('NC(=O)c1ccc(NC(=O)Nc2ccc(F)c(C(F)(F)F)c2)cc1', 'solubility kinetic', '6.3 to 12.5 µg/mL'),
  ('O=C(Nc1ccc2c(c1)OC(F)(F)O2)Nc1ccc2c(c1)OC(F)(F)O2', 'solubility kinetic', '< 1.6 µg/mL'),
  ('N#Cc1ccc(NC(=O)Nc2ccnc(C(F)(F)F)c2)cc1', 'solubility kinetic', '1.6 to 3.1 µg/mL'),
  ('Cc1cc(NC(=O)Nc2ccc(F)c(C(F)(F)F)c2)on1', 'solubility kinetic', '6.3 to 12.5 µg/mL'),
  ('O=C(Nc1ccnc(C(F)(F)F)c1)Nc1ccc(F)c(C(F)(F)F)c1', 'solubility kinetic', '3.1 to 6.3 µg/mL'),
  ('O=C(Nc1ccc2c(c1)OC(F)(F)O2)Nc1ccc(F)c(C(F)(F)F)c1', 'solubility kinetic', '< 1.6 µg/mL'),
  ('O=C(Nc1ccnc(C(F)(F)F)c1)Nc1ccc2c(c1)OC(F)(F)O2', 'solubility kinetic', '3.1 to 6.3 µg/mL'),
  ('NC(=O)c1ccccc1NC(=O)Nc1ccc(F)c(C(F)(F)F)c1', 'solubility kinetic', '1.6 to 3.1 µg/mL'),
  ('O=C(Nc1ccc(F)c(C(F)(F)F)c1)Nc1ccccn1', 'solubility kinetic', '< 1.6 µg/mL'),
  ('N#Cc1ccc(NC(=O)Nc2ccc(F)c(C(F)(F)F)c2)cc1', 'solubility kinetic', '< 1.6 µg/mL'),
  ('O=C(Nc1ccc(C(=O)O)cc1)Nc1ccc(F)c(C(F)(F)F)c1', 'solubility kinetic', '12.5 to 25 µg/mL'),
  ('O=C(Nc1cccc(C(=O)O)c1)Nc1ccc(F)c(C(F)(F)F)c1', 'solubility kinetic', '12.5 to 25 µg/mL'),
  ('O=C(Nc1ccncc1)Nc1ccc(F)c(C(F)(F)F)c1', 'solubility kinetic', '6.3 to 12.5 µg/mL'),
  ('CC(=O)c1ccc(NC(=O)Nc2ccc(F)c(C(F)(F)F)c2)cc1', 'solubility kinetic', '< 1.6 µg/mL');

---

assay-explanation: Octanol-[…] partition coefficient, log D of the compound at pH 7.4 by RP-HPLC method
The reader will find reported chromatographic logD values listed item by item below.
readout: chromatographic logD

INSERT INTO measurements (chemical_smiles, readout, quantitative_result) VALUES
  ('O=C(Nc1ccc(F)c(C(F)(F)F)c1)Nc1ccc(F)c(C(F)(F)F)c1', 'chromatographic logD', 4.5),
  ('O=C(Nc1cnccn1)Nc1cnccn1', 'chromatographic logD', 0.8),
  ('O=C(Nc1cccnc1)Nc1ccc(F)c(C(F)(F)F)c1', 'chromatographic logD', 3);

---

System: HFF
assay-explanation: Cytotoxicity against HFF
Format: cell-based
reported-conditions: Homo sapiens
pIC50: −log10 of the molar value.
readout: pIC50

INSERT INTO results (chemical_smiles, inequality_operator, quantitative_result) VALUES
  ('O=C(Nc1ccnc(C(F)(F)F)c1)Nc1ccnc(C(F)(F)F)c1', '<', 4.00),
  ('O=C(Nc1ccc2c(c1)OC(F)(F)O2)Nc1ccc2c(c1)OC(F)(F)O2', '=', 4.10),
  ('N#Cc1ccc(NC(=O)Nc2ccc(F)c(C(F)(F)F)c2)cc1', '=', 4.22),
  ('N#Cc1ccc(NC(=O)Nc2ccnc(C(F)(F)F)c2)cc1', '<', 4.00),
  ('O=C(Nc1ccnc(C(F)(F)F)c1)Nc1ccc(F)c(C(F)(F)F)c1', '=', 4.15),
  ('O=C(Nc1ccc(F)c(C(F)(F)F)c1)Nc1ccc(F)c(C(F)(F)F)c1', '=', 4.24),
  ('O=C(Nc1ccc2c(c1)OC(F)(F)O2)Nc1ccc(F)c(C(F)(F)F)c1', '=', 4.17),
  ('O=C(Nc1ccnc(C(F)(F)F)c1)Nc1ccc2c(c1)OC(F)(F)O2', '=', 4.10);

---

assay-explanation: Half-life in Swiss mouse at 100 mg/kg, po administered as single dose via gavage by LC-MS analysis
Assay type: ADME, organism-based
reported-conditions: in vivo
The reader will find reported half-life values listed item by item below.
readout: half-life (h)

INSERT INTO results (chemical_smiles, readout, quantitative_result) VALUES
  ('N#Cc1ccc(NC(=O)Nc2ccc(F)c(C(F)(F)F)c2)cc1', 'half-life', 2.7),
  ('O=C(Nc1ccnc(C(F)(F)F)c1)Nc1ccc(F)c(C(F)(F)F)c1', 'half-life', 18),
  ('O=C(Nc1ccnc(C(F)(F)F)c1)Nc1ccnc(C(F)(F)F)c1', 'half-life', 10),
  ('O=C(Nc1ccc2c(c1)OC(F)(F)O2)Nc1ccc2c(c1)OC(F)(F)O2', 'half-life', 13),
  ('O=C(Nc1ccc(F)c(C(F)(F)F)c1)Nc1ccc(F)c(C(F)(F)F)c1', 'half-life', 11),
  ('N#Cc1ccc(NC(=O)Nc2ccnc(C(F)(F)F)c2)cc1', 'half-life', 2.3);

---

The reader will find reported chromatographic logD values listed item by item below.
assay-explanation: Octanol-[…] partition coefficient, log D of the compound at pH 7.4 by RP-HPLC method
readout: chromatographic logD

INSERT INTO measurements (chemical_smiles, quantitative_result) VALUES
  ('O=C(Nc1ccc(F)c(C(F)(F)F)c1)Nc1cnccn1', 3),
  ('NC(=O)c1ccc(NC(=O)Nc2ccc(F)c(C(F)(F)F)c2)cc1', 2.7),
  ('O=C(Nc1ccc(F)c(C(F)(F)F)c1)Nc1ccccn1', 3.7),
  ('Cc1cc(NC(=O)Nc2ccc(F)c(C(F)(F)F)c2)on1', 3.2),
  ('O=C(Nc1ccncc1)Nc1ccc(F)c(C(F)(F)F)c1', 3.2),
  ('O=C(Nc1ccc2c(c1)OC(F)(F)O2)Nc1ccc(F)c(C(F)(F)F)c1', 4.5);

---

System: Schistosoma mansoni
assay-explanation: Antischistosomal activity against newly transformed stage of Schistosoma mansoni measured after 72 hrs by microscopic analysis
Type: functional, organism-based
The reader will find reported IC50 values listed item by item below.
readout: IC50 (nM)

INSERT INTO measurements (chemical_smiles, readout, quantitative_result) VALUES
  ('O=C(Nc1ccncc1)Nc1ccc(F)c(C(F)(F)F)c1', 'IC50', 5600),
  ('N#Cc1ccc(NC(=O)Nc2ccc(F)c(C(F)(F)F)c2)cc1', 'IC50', 1600),
  ('O=C(Nc1ccc(F)c(C(F)(F)F)c1)Nc1ccc(F)c(C(F)(F)F)c1', 'IC50', 150),
  ('O=C(Nc1ccc2c(c1)OC(F)(F)O2)Nc1ccc(F)c(C(F)(F)F)c1', 'IC50', 210),
  ('O=C(Nc1ccc2c(c1)OC(F)(F)O2)Nc1ccc2c(c1)OC(F)(F)O2', 'IC50', 260),
  ('O=C(Nc1ccnc(C(F)(F)F)c1)Nc1ccc(F)c(C(F)(F)F)c1', 'IC50', 740),
  ('N#Cc1ccc(NC(=O)Nc2ccnc(C(F)(F)F)c2)cc1', 'IC50', 1900),
  ('O=C(Nc1ccnc(C(F)(F)F)c1)Nc1ccnc(C(F)(F)F)c1', 'IC50', 2400),
  ('O=C(Nc1ccnc(C(F)(F)F)c1)Nc1ccc2c(c1)OC(F)(F)O2', 'IC50', 1300);

---

assay-explanation: Half-life in mouse at 46.3 mg/kg, po
Assay type: ADME, organism-based
reported-conditions: in vivo
readout: half-life (h)

INSERT INTO measurements (chemical_smiles, readout, quantitative_result) VALUES
  ('O=C(Nc1ccc(Cl)c(Cl)c1)Nc1ccc(Cl)c(Cl)c1', 'half-life', 4.7);
